test system: HepG2 cells; experiment: HepG2 cytotoxicity assay; details: HepG2 cytotoxicity listed with the Pb ODA data set (this manuscript)
We label by threshold. Values of Pb ODA (this manuscript) HepG2 cytoxicity strictly beneath 20 µM are TRUE. Values of 20 µM and up are FALSE.

compound: C=CCOc1ccc(-c2c(C)[nH]c(C)c(Br)c2=O)cc1 [TCMDC-135042]
assigned class: TRUE

compound: Cl.Nc1nc(N)c2c(ccc3nn(S(=O)(=O)N4CCCC4)cc32)n1 [TCMDC-137854]
assigned class: TRUE

compound: CC(C)CCN1CCC(Oc2ccc(NC(=O)c3cccs3)cc2Cl)CC1.O=C(O)C(F)(F)F [TCMDC-133974]
assigned class: FALSE

compound: Cc1[nH]c2ccccc2c(=O)c1Br [TCMDC-137427]
assigned class: FALSE

compound: Cc1[nH]c(C)c(-c2ccc(S(=O)(=O)c3ccc(Cl)cc3)cc2)c(=O)c1Br [TCMDC-137414]
assigned class: FALSE

Take the compound CCCCCCCc1c(C)[nH]c2ccccc2c1=O [TCMDC-137425] and say whether its Pb ODA (this manuscript) HepG2 cytoxicity is less than 20 µM. FALSE

Take the compound N#Cc1ccc(CN2CCC(Oc3ccc(NC(=O)c4cccs4)cc3Cl)CC2)cc1.O=C(O)C(F)(F)F [TCMDC-133955] and say whether its Pb ODA (this manuscript) HepG2 cytoxicity is less than 20 µM. FALSE

Take the compound CC(C)Cn1ncc2c3c(N)nc(N)nc3ccc21 [TCMDC-137970] and say whether its Pb ODA (this manuscript) HepG2 cytoxicity is less than 20 µM. TRUE

Take the compound Cc1ccc(C2(CN3CCC(NC(=O)c4[nH]ncc4Cl)CC3)CCCCC2)cc1 [TCMDC-124838] and say whether its Pb ODA (this manuscript) HepG2 cytoxicity is less than 20 µM. FALSE

* * *

tested on: HepG2 cells; test: HepG2 cytotoxicity assay; details: read-out: HepG2 cytotoxicity assay IC50; dose response confirmation
Classes are defined on IC50 with ranges low bin (below 1 µM), mid bin (1 µM to below 40 µM), high bin (40 µM or more)

compound: CCCCOc1cc2ncc(C(=O)OCC)c(O)c2cc1OCCCC [TCMDC-137523]
assigned class: high bin

Form field 'band' for COc1nc2c(CCN3CCC(NCc4ccc5c(c4)NCCO5)CC3)c(Cl)cnc2cc1F.Cl [TCMDC-135768] mid bin

Form field 'band' for COc1ccc2ncc(F)c(NC(=O)C3CCC(NCc4cc5cc(F)cc(F)c5[nH]4)CC3)c2n1.Cl (stereo not drawn) [TCMDC-136455] mid bin

Form field 'band' for Cc1cc2nc(/N=C(\N)NC(=O)NC3CCCCC3)nc(C)c2cc1C [TCMDC-124528] mid bin

Form field 'band' for Br.COc1ccc(CC(C)CON2C(N)=NC(N)=NC2(C)C)cc1 (stereo not drawn) [TCMDC-131722] low bin

* * *

Assignment: determine reported Is compound selective in assay? Pf FGAA active? for the given compounds.
tested on: P. falciparum female gametocytes; assay: P. falciparum female gametogenesis assay (Pf FGAA); conditions: 1: YES; 0: NO

// below: answered compounds
compound: CS(=O)(=O)O.CSc1ccc2ccccc2c1CCNCCCCNCCc1c(SC)ccc2ccccc12
reported result: 0 (0: NO)
--
compound: Cc1c(Cn2ncc(N3CCC(N)CC3)c(Cl)c2=O)cccc1NC(=O)Nc1ccc(-c2ccccc2)cc1.O=C(O)C(F)(F)F
reported result: 1 (1: YES)
--
compound: COc1cc(/C=C(\C2=NC(=O)CS2)c2nc3cccnc3n2C)ccc1O
reported result: 1 (1: YES)
--
compound: Oc1c(C(Nc2ccccn2)c2ccc(Cl)cc2Cl)ccc2cccnc12 (stereo not shown)
reported result: 1 (1: YES)
--
compound: Cl.c1ccc2c(NCCCCCCCCCNc3ccnc4ccccc34)ccnc2c1
reported result: 0 (0: NO)
--
compound: Cc1occc1C(=O)Nc1nc(-c2ccccn2)nc2ccsc12
reported result: 1 (1: YES)

State the recorded Is compound selective in assay? Pf FGAA active? for every item in the following list.
1. CCc1c(CCNCCCCCNCCc2ccc(OC)c(OC)c2CC)ccc(OC)c1OC.Cl
2. CS(=O)(=O)O.FC(F)(F)COc1ccc2ccccc2c1CCNCCCCNCCc1c(OCC(F)(F)F)ccc2ccccc12

1: 0 (0: NO); 2: 0 (0: NO)

State the recorded Is compound selective in assay? Pf FGAA active? for every item in the following list.
1. CCCCOc1c(CCNCCCCNCCc2cc(OC)c3ccccc3c2OCCCC)cc(OC)c2ccccc12.CS(=O)(=O)O
2. CNCCNc1nccc(N2CCc3ncnc(Nc4ccc(OCc5cccc(F)c5)c(Cl)c4)c3C2)n1
3. c1cc(C2=N[C@H]3CCCC[C@@H]3N2)ccc1OCCCOc1ccc(C2=N[C@@H]3CCCC[C@H]3N2)cc1
4. Cc1sc2nc(CN3CCCC3)nc(-n3c(NCCO)nc4ccccc43)c2c1C
5. O=C(Nc1cc(C(F)(F)F)cc(C(F)(F)F)c1)Nc1ccc(Cl)c(Cl)c1
6. CC(C)c1ccc(CN2CCC(CNC(=O)c3cc(-c4ccc(N(C)C)cc4)cs3)C2)cc1.O=C(O)C(F)(F)F (stereo not shown)
7. O=C(Nc1cccc(-c2cccc(-c3nc4cc(C(F)(F)F)ccc4[nH]3)c2)c1)Nc1ccc(F)c(F)c1F

1: 0 (0: NO); 2: 0 (0: NO); 3: 0 (0: NO); 4: 0 (0: NO); 5: 0 (0: NO); 6: 0 (0: NO); 7: 0 (0: NO)

State the recorded Is compound selective in assay? Pf FGAA active? for every item in the following list.
1. CN1CCN(CCCN(Cc2cccc(-c3ccc(CNCCc4ccccc4)cc3)c2)C(=O)c2cccs2)CC1.O=C(O)C(F)(F)F
2. CC(C)c1ccc(CN2CCC(CNC(=O)c3cc(-c4ccccc4F)cs3)C2)cc1.O=C(O)C(F)(F)F (stereo not shown)
3. COc1cc2nc(N3CCN(c4nc(N)c5cc(OC)c(OC)cc5n4)CC3)nc(N)c2cc1OC
4. O=C(O)CCSSc1cccc[n+]1[O-]
5. Fc1ccc(NC(S)=NN=Cc2ccccn2)cc1

0 (0: NO)
0 (0: NO)
1 (1: YES)
1 (1: YES)
1 (1: YES)

State the recorded Is compound selective in assay? Pf FGAA active? for every item in the following list.
1. CN(CCc1ccccc1)c1ncc(-c2cccc(CNCCC3CCCN3C)c2)cn1 (stereo not shown)
2. CN1CCCC(CN2CCN(Cc3cccc(-c4ccc(-c5nc6cc(C(F)(F)F)ccc6[nH]5)cc4)c3)CC2)C1.O=C(O)C(F)(F)F (stereo not shown)
3. CCn1c(-c2nonc2N)nc2c(-c3cccc(NC(=O)Nc4cccc(Cl)c4)c3)ncc(OCCCN)c21.O=C(O)C(F)(F)F
4. CCn1c(-c2nonc2N)nc2c(-c3cccc(NC(=O)Nc4ccc5c(c4)CCC5)c3)ncc(OCCCN)c21.O=C(O)C(F)(F)F
5. Cl.Fc1cc(Cl)ccc1Nc1ccnc2cc(-c3ccc(CN4CCNCC4)o3)ccc12
6. N=C(NCC1CC1c1ccccc1)c1cccc(C(=N)NCC2CC2c2ccccc2)n1 (stereo not shown)

0 (0: NO)
0 (0: NO)
1 (1: YES)
0 (0: NO)
0 (0: NO)
0 (0: NO)

State the recorded Is compound selective in assay? Pf FGAA active? for every item in the following list.
1. CN1CCN(Cc2ccc(-c3cc4c(Nc5ccc(OCc6cccc(F)c6)c(Cl)c5)ncnc4s3)[nH]2)CC1
2. Cl.c1ccc2c(C3CCN(CCCCOc4ccc5c(c4)CCN(CC4CC4)CC5)CC3)c[nH]c2c1
3. COc1cc2nc(N3CCC(CNCc4ccc(-c5ccc(C(F)(F)F)cc5)cc4)CC3)nc(N)c2cc1OC
4. Cl.c1ccc2c(NCCCCCCCCCNc3c4ccccc4nc4ccccc34)c3ccccc3nc2c1
5. CCCOc1ccc2ccccc2c1CNCCCCCCNCc1c(OCCC)ccc2ccccc12.CS(=O)(=O)O

1: 0 (0: NO); 2: 0 (0: NO); 3: 1 (1: YES); 4: 0 (0: NO); 5: 0 (0: NO)

* * *

tested on: HepG2 cells; assay: HepG2 cytotoxicity assay; settings: HepG2 cytotoxicity unified across screens; >25 set to 25.00
parameter: Unified cytotox (µM)
Answers are plain numbers, in µM.

// below: answered compounds
compound: CC(C)CNCc1cccc(-c2cccc(CN(CCCN3CCN(C)CC3)C(=O)CCC3CCCC3)c2)c1.O=C(O)C(F)(F)F
Unified cytotox / µM: 4.55
//
compound: Cc1cccc2[nH]cc(C3CCN(CC4CCC(NC(=O)/C=C/c5ccc(Cl)c(Cl)c5)CC4)CC3)c12.Cl (stereo not shown)
Unified cytotox / µM: 2.95
//
compound: CN(C)Cc1ccc(-c2cccc(Nc3nccc(NCC(O)c4ccccc4)n3)c2)cc1 (stereo not shown)
Unified cytotox / µM: 5.87

Proceed to the following item.
// Unified cytotox value for `CC(=NNC(=S)NCCc1ccccn1)c1ccccn1` : 25.00
